molecular target: HDAC2 (Homo sapiens, UniProt Q92769); assay: HDAC2 fluorescence inhibition assay (tBoc-Lys(Ac)-AMC)
Sequence (Q92769 with tags, fused parts or gaps): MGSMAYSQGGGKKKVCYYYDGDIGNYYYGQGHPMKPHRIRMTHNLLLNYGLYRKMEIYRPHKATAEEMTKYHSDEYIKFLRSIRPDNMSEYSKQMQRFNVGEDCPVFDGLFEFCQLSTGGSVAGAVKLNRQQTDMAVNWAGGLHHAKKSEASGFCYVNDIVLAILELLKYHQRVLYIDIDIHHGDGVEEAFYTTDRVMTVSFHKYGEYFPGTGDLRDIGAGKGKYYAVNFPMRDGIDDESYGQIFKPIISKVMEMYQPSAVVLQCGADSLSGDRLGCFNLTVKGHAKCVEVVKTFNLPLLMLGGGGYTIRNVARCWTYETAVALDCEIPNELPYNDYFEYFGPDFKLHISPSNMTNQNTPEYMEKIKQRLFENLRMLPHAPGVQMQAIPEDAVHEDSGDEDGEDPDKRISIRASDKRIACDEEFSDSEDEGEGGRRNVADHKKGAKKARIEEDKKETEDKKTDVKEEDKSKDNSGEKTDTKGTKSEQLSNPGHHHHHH
readout.label: IC50

Reference set (3 entries):
| compound | assayed.target | measured.value |
| --- | --- | --- |
| Nc1ccccc1NC(=O)c1ccc(Cn2cc3cc(C(F)(F)F)ccc3n2)cc1 [Example 120] | HDAC2 (Homo sapiens, UniProt Q92769) | 50 to 100 nM |
| Cc1c2ccccc2nn1Cc1ccc(C(=O)Nc2ccccc2N)cc1 [Example 29] | HDAC2 (Homo sapiens, UniProt Q92769) | 50 to 100 nM |
| Nc1ccccc1NC(=O)c1ccc(CCn2ncc3ccccc32)cc1 [Example 40] | HDAC2 (Homo sapiens, UniProt Q92769) | 100 to 500 nM |

--- query ---
Kindly note the recorded IC50 for CN(C)CCCNC(=O)c1cnn(Cc2ccc(C(=O)Nc3ccccc3N)cc2)c1 [Example 144] , which is ≤ 50 nM
